inhibition overview
molecular target: Mannose-6-phosphate isomerase (Homo sapiens) (UniProt P34949); experiment: inhibitors of human PMI, primary screen, biochemical, fluorescence intensity, coupled assay (AID 1209); conditions: purified PMI enzyme, at 20 µM, active compounds read high;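 also: plate controls were DMSO vehicle for no effect and wells lacking substrate for full effect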
Sequence (P34949 whole entry, looked up): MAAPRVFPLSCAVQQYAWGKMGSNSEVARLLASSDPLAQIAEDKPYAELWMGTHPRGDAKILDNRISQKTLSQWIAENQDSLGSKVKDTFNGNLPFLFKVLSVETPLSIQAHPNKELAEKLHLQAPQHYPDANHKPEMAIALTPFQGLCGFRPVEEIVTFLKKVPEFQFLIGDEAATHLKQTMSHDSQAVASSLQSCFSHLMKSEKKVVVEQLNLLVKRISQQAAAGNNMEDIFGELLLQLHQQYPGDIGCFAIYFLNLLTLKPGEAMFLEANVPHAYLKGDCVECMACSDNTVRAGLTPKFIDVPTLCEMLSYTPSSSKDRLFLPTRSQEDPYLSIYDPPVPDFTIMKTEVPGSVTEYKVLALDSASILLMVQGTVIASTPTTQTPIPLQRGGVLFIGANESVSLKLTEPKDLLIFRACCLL
Out of some 190,000 compounds screened, about 810 (0.43%) were called active. The sample holds actives, similar compounds and a random draw of the others, so the mix is not that of the screen.
ASSAY_READOUT: inhibition (%)

MOLECULE | MEASURED_ON | ASSAY_READOUT | DATA_VALUE
COc1ccc(C(=O)Nc2c(Cl)cc(Cl)cc2C(=O)NCCN2CCOCC2)cc1 | Mannose-6-phosphate isomerase (Homo sapiens) (UniProt P34949) | inhibition | 2.6
COc1ccc(/C=N/Nc2cc(OC)ncn2)cc1 | Mannose-6-phosphate isomerase (Homo sapiens) (UniProt P34949) | inhibition | 14.3
COCCNC(=S)NCCc1ccc(Cl)cc1Cl | Mannose-6-phosphate isomerase (Homo sapiens) (UniProt P34949) | inhibition | -1.5
Cc1cc(N/N=C\c2ccccc2)nc(-c2ccccc2O)n1 | Mannose-6-phosphate isomerase (Homo sapiens) (UniProt P34949) | inhibition | 17.7
Clc1ccc(/C=N/Nc2ccccn2)cc1 | Mannose-6-phosphate isomerase (Homo sapiens) (UniProt P34949) | inhibition | -8.3
O=C1CCCN2N=C(SCC(=O)N3N=C(c4ccc(Br)cc4)CC3c3ccc(F)cc3)SC2=N1 (centres undefined) | Mannose-6-phosphate isomerase (Homo sapiens) (UniProt P34949) | inhibition | 22.3
COc1ccc(-c2csc(NC(=O)c3cc(=O)c4ccccc4o3)n2)cc1OC | Mannose-6-phosphate isomerase (Homo sapiens) (UniProt P34949) | inhibition | -9.2
COc1ccc(NC(=O)CSc2nnc(Cn3cnc4ccccc43)o2)cc1 | Mannose-6-phosphate isomerase (Homo sapiens) (UniProt P34949) | inhibition | 4.8
S=c1nc(-c2ccccc2)n(CCCn2ccnc2)c2c1CCCC2 | Mannose-6-phosphate isomerase (Homo sapiens) (UniProt P34949) | inhibition | 1.7
COc1ccccc1/C=N/Nc1nncc2ccccc12 | Mannose-6-phosphate isomerase (Homo sapiens) (UniProt P34949) | inhibition | 2.9
CC1=C(C)/C(=N\OC(=O)/C=C/c2ccccc2)C=CC1=O | Mannose-6-phosphate isomerase (Homo sapiens) (UniProt P34949) | inhibition | 7.2
CN(C)NC(=S)Nc1ccc2nc(-c3ccccn3)c(-c3ccccn3)nc2c1 | Mannose-6-phosphate isomerase (Homo sapiens) (UniProt P34949) | inhibition | -8.4
CN1C(=O)/C(=C\C=C2/CCCN2C)N(C)C1=S | Mannose-6-phosphate isomerase (Homo sapiens) (UniProt P34949) | inhibition | 53.2
O=C1/C(=C/c2cccc([N+](=O)[O-])c2)CCc2ccccc21 | Mannose-6-phosphate isomerase (Homo sapiens) (UniProt P34949) | inhibition | 14.1
Cc1ccccc1OCC(=O)N(Cc1ccc(N(C)C)cc1)C1CCS(=O)(=O)C1 (centres undefined) | Mannose-6-phosphate isomerase (Homo sapiens) (UniProt P34949) | inhibition | 3.1
OCCCNC(=S)Nc1ccc2nc(-c3ccccn3)c(-c3ccccn3)nc2c1 | Mannose-6-phosphate isomerase (Homo sapiens) (UniProt P34949) | inhibition | 56.9
COc1ccc(/C=N/Nc2cc(N(C)C)nc(N(C)C)n2)cc1 | Mannose-6-phosphate isomerase (Homo sapiens) (UniProt P34949) | inhibition | 61.2
CCOc1ccc(N2C(=O)CCC2=O)cc1 | Mannose-6-phosphate isomerase (Homo sapiens) (UniProt P34949) | inhibition | 6.4
Cc1cc(N/N=C/c2ccccc2)nc(NCc2ccccc2)n1 | Mannose-6-phosphate isomerase (Homo sapiens) (UniProt P34949) | inhibition | 21.5

Where these numbers come from: PubChem BioAssay AID1209
